B1: HDV Ribozyme (parent)
chain: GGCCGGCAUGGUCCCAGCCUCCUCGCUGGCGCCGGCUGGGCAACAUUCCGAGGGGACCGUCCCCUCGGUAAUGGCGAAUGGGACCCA

Variants of: B1
Experiment summary: self-cleavage, relative activity (ratio to wild type); higher = more cleavage; co-transcriptional
Assay metric: self-cleavage
Just the number, please.

Examples with their reported self-cleavage follow.
> print(dat)
      mutant   assay.metric  reported
1  U72A G82A  self-cleavage     0.295
2  A43U G68U  self-cleavage     0.299
3  A45G G59A  self-cleavage      1.06
4  C19G A78U  self-cleavage    0.0773
5  G50U G82U  self-cleavage     0.633

Entry A45C A70G ; self-cleavage = 0.655

Entry G73A A77U ; self-cleavage = 0.189

Entry C24A G80U ; self-cleavage = 0.198

Entry U20G G68A ; self-cleavage = 0.0378

Entry U60A G81C ; self-cleavage = 0.0811

Entry C61U A83U ; self-cleavage = 0.456
